Values were extracted from patent US10669272B2.

Molecular target: human DGKζ (Homo sapiens, UniProt Q13574)
Construct: TVMV protease cleavage site (C); Hexa-His (C); made in house; host or cells: Sf9 insect cells (baculovirus, Bac-to-Bac)
Sequence (Q13574 with tags, fused parts or gaps isoform Q13574-4): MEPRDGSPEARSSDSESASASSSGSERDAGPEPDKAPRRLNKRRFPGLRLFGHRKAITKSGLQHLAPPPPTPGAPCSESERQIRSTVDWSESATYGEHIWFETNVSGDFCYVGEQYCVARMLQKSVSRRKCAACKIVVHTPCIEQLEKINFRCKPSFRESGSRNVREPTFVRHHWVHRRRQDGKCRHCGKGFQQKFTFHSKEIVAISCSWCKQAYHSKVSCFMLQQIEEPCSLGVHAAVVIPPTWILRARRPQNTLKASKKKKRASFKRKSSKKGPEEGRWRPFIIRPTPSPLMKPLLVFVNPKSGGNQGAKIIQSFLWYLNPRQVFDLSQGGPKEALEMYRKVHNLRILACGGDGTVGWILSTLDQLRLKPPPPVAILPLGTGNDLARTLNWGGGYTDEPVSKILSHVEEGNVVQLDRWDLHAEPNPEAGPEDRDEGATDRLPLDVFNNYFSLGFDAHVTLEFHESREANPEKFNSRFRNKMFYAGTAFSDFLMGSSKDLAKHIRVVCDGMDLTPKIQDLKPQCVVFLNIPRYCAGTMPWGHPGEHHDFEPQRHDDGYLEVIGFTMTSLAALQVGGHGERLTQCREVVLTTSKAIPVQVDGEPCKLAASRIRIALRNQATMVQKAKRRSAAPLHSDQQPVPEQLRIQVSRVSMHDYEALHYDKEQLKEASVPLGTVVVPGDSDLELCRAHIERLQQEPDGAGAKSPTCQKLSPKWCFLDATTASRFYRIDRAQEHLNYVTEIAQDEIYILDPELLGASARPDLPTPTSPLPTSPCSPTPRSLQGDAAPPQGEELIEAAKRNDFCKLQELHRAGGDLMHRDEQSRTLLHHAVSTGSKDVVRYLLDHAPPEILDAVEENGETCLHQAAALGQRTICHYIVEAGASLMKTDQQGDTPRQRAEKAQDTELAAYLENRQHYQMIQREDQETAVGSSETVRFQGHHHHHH
Test: DGKζ LIPGLO assay (extruded liposome substrate), in vitro DGK inhibition
Format: biochemical
Settings: liposome (LIPGLO) assay; read-out: DGKz LIPGLO IC50
READOUT_KIND: IC50 (nM)
Give bare numbers, in nM.

For orientation, consider the following solved cases.
[[record]]
molecule = "COc1ccc(C(c2cccc(F)c2)N2C[C@H](C)N(c3cc(=O)n(C)c4ccc(C#N)nc34)C[C@H]2C)nc1 (single isomer, unassigned) [Example 687]"
numeric_readout = 730

[[record]]
molecule = "Cc1cc(C2CN(c3cc(=O)n(C)c4ccc(C#N)nc34)CC(C)N2C(c2ccc(F)cc2)c2ccc(F)cc2)ccn1 (stereo not drawn)"
numeric_readout = 240000


// query IC50 value for entry C[C@@H]1CN(c2cc(=O)n(C)c3ccc(C#N)nc23)[C@@H](C)CN1C(c1ccccc1)c1ccccc1F (stereo partly drawn) 680
